Biological target: AChE from Electrophorus electricus (type VI-S) (Electrophorus electricus)
Construct: purchased
Test: biochemical
PROPERTY: IC50 (µM)

INSERT INTO measurements (test_smiles, property, observed) VALUES
  ('COc1c2ccoc2c(OC)c2oc(=O)ccc12', 'IC50', 41);

* * *

Molecular target: AChE from Electrophorus electricus (type VI-S) (Electrophorus electricus)
Construct: purchased
Test: biochemical
Details: Ellman method, 0.2 Units/mL AChE, pH 7.4, mean ± SD; read-out: AChE assay IC50
PROPERTY: IC50 (µM)

INSERT INTO measurements (compound, property, observed) VALUES
  ('COc1cc2oc(=O)ccc2c(OC)c1O [Fraxinol, fraxinol]', 'IC50', 18),
  ('COc1cc2oc(=O)ccc2c(OC)c1CC(=O)C(C)C [Toddanone, toddanone]', 'IC50', 46),
  ('COc1cc2oc(=O)ccc2c(OC)c1CC=C(C)C [Toddaculin, toddaculin]', 'IC50', 53),
  ('COc1c2ccoc2c(OCC=C(C)C)c2oc(=O)ccc12 [Phellopterin, phellopterin]', 'IC50', 38),
  ('COc1cc(OC)c2ccc(=O)oc2c1/C=C/C(C)=O [Toddalenone, toddalenone]', 'IC50', 40),
  ('COC1=CC(=O)c2cc(C)cc(-c3c(OC)cc(OC)c4ccc(=O)oc34)c2C1=O [Toddacoumaquinone, toddacoumaquinone]', 'IC50', 46),
  ('COc1cc2oc(=O)ccc2c(OC)c1C[C@@H](O)C(C)(C)O [Toddalolactone, toddalolactone]', 'IC50', 49),
  ('COc1cc(OC)c2ccc(=O)oc2c1OCC=C(C)C [Artanin, artanin]', 'IC50', 51);

* * *

Target: AChE-induced Aβ1–42 aggregation (Electrophorus electricus, UniProt O42275)
Sequence (O42275 24-633): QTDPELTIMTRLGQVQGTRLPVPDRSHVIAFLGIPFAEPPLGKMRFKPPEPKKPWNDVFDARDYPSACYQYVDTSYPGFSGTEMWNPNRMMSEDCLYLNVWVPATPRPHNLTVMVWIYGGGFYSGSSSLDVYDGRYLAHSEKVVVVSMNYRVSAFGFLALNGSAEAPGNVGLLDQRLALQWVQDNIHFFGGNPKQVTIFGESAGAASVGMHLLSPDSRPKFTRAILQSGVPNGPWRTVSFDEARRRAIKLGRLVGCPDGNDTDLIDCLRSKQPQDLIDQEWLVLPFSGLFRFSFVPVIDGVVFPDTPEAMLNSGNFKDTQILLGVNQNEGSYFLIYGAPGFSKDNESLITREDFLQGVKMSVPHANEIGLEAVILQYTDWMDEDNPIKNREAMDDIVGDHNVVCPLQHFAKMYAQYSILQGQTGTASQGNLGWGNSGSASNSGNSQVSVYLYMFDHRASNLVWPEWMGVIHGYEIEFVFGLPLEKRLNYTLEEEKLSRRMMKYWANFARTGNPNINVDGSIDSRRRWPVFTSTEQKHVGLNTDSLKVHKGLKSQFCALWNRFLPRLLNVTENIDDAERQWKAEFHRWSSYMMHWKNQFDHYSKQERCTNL
Assay: Inhibition of AChE-induced Aβ1–42 aggregation (thioflavin T assay)
PROPERTY: IC50 (µM)

INSERT INTO results (molecule, tgt, operator, observed) VALUES
  ('COC1=CC(=O)c2cc(C)cc(-c3c(OC)cc(OC)c4ccc(=O)oc34)c2C1=O [Toddacoumaquinone, toddacoumaquinone]', 'AChE-induced Aβ1–42 aggregation (Electrophorus electricus, UniProt O42275)', '=', 72),
  ('COc1cc(OC)c2ccc(=O)oc2c1/C=C/C(C)=O [Toddalenone, toddalenone]', 'AChE-induced Aβ1–42 aggregation (Electrophorus electricus, UniProt O42275)', '=', 211),
  ('COc1cc2oc(=O)ccc2c(OC)c1C[C@@H](O)C(C)(C)O [Toddalolactone, toddalolactone]', 'AChE-induced Aβ1–42 aggregation (Electrophorus electricus, UniProt O42275)', '=', 105),
  ('COc1cc(OC)c2ccc(=O)oc2c1OCC=C(C)C [Artanin, artanin]', 'AChE-induced Aβ1–42 aggregation (Electrophorus electricus, UniProt O42275)', '=', 98),
  ('COc1c2ccoc2c(OC)c2oc(=O)ccc12 [Isopimpinellin, isopimpinellin]', 'AChE-induced Aβ1–42 aggregation (Electrophorus electricus, UniProt O42275)', '>', 500),
  ('COc1cc2oc(=O)ccc2c(OC)c1O [Fraxinol, fraxinol]', 'AChE-induced Aβ1–42 aggregation (Electrophorus electricus, UniProt O42275)', '>', 500),
  ('COc1cc2oc(=O)ccc2c(OC)c1CC=C(C)C [Toddaculin, toddaculin]', 'AChE-induced Aβ1–42 aggregation (Electrophorus electricus, UniProt O42275)', '=', 232),
  ('COc1cc2oc(=O)ccc2c(OC)c1CC(=O)C(C)C [Toddanone, toddanone]', 'AChE-induced Aβ1–42 aggregation (Electrophorus electricus, UniProt O42275)', '=', 110),
  ('COc1c2ccoc2c(OCC=C(C)C)c2oc(=O)ccc12 [Phellopterin, phellopterin]', 'AChE-induced Aβ1–42 aggregation (Electrophorus electricus, UniProt O42275)', '=', 97);

* * *

Biological target: Aβ1–42 (Homo sapiens)
Sequence (P05067 672-713 limits assumed): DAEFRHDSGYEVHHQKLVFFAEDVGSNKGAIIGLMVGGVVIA
Test: Inhibition of self-induced Aβ1–42 aggregation (thioflavin T assay)
Conditions: ThT fluorescence, Aβ1–42, 48 h at 37 °C, mean ± SD; read-out: Self-Induced Aβ IC50
pIC50: −log10 of the molar value.
Parameter threshold = 4. Response is YES when pIC50 meets or exceeds it, else NO.

INSERT INTO measurements (test_smiles, class_name) VALUES
  ('COc1cc2oc(=O)ccc2c(OC)c1C[C@@H](O)C(C)(C)O', 'NO'),
  ('COc1cc2oc(=O)ccc2c(OC)c1CC(=O)C(C)C', 'YES'),
  ('COc1cc2oc(=O)ccc2c(OC)c1CC=C(C)C', 'NO'),
  ('COC1=CC(=O)c2cc(C)cc(-c3c(OC)cc(OC)c4ccc(=O)oc34)c2C1=O', 'NO'),
  ('COc1cc2oc(=O)ccc2c(OC)c1O', 'NO');

* * *

Molecular target: Aβ1–42 (Homo sapiens)
Assay: Inhibition of self-induced Aβ1–42 aggregation (thioflavin T assay)
Conditions: ThT fluorescence, Aβ1–42, 48 h at 37 °C, mean ± SD; read-out: Self-Induced Aβ IC50
pIC50: −log10 of the molar value.
Listed compounds paired with reported pIC50
PROPERTY: pIC50

INSERT INTO results (compound, property, observed) VALUES
  ('COc1cc(OC)c2ccc(=O)oc2c1OCC=C(C)C [Artanin, artanin]', 'pIC50', 3.91),
  ('COc1c2ccoc2c(OC)c2oc(=O)ccc12 [Isopimpinellin, isopimpinellin]', 'pIC50', 3.90),
  ('COc1cc(OC)c2ccc(=O)oc2c1/C=C/C(C)=O [Toddalenone, toddalenone]', 'pIC50', 4.00),
  ('COc1c2ccoc2c(OCC=C(C)C)c2oc(=O)ccc12 [Phellopterin, phellopterin]', 'pIC50', 4.02);
